- Method: Antioxidant DPPH assay
- Test context: DPPH, 50 µM
Would you mind telling me the reported % Free Radicle Scavenging, Mean ± SE of each entry?

Provide only the value of recorded % Free Radicle Scavenging, Mean ± SE for COc1ccccc1C=NNC(=O)CC1=C(C)C(=Cc2ccc([S+](C)[O-])cc2)c2ccc(F)cc21 (stereo in doubt) [SD-31]
12.24 ± 0.222%

Provide only the value of recorded % Free Radicle Scavenging, Mean ± SE for O=C1O[C@H]([C@@H](O)CO)C(O)=C1O [Ascorbic acid, reference compound]
42.66 ± 1.491%

Provide only the value of recorded % Free Radicle Scavenging, Mean ± SE for CC1=C(CC(=O)NN=Cc2ccc(O)cc2)c2cc(F)ccc2C1=Cc1ccc([S+](C)[O-])cc1 (stereo in doubt) [SD-30]
17.37 ± 0.988%
